# MEASUREMENT PROTOCOL: inhibition of NOD2-driven NF-kB reporter – cell-based, luminescence, uHTS, HEK293 (AID 1566)
# MEASUREMENT SETUP: HEK293 NOD2/NF-kB luciferase reporter, at 4 µM, active compounds read high
Hit rate of the full screen: of about 290,000 compounds, about 1,800 (0.62%) were called active. This is one part of a sample in which actives are shown more often than they occur.
OUTCOME MEASURE: inhibition (%)

MOLECULE	QUANTITATIVE READOUT
Cc1nn(-c2ccc(C(=O)O)cc2)c(C)c1Cl	11.5
O=C(Nc1cc(S(=O)(=O)N2CCCC2)ccc1OCC(F)(F)F)c1ccccc1F	6.6
COc1cc(NC(=O)c2ccccc2)c(OC)cc1Cl	-0.5
O=C(CNC(=S)N(CCCN1CCOCC1)Cc1cccs1)N1CCCCCC1	-0.9
CCOc1cccc(/C=N/NC(=O)c2cc(C3CC3)[nH]n2)c1O	63.2
O=c1[nH]c(C2CCN(S(=O)(=O)Cc3ccccc3)CC2)nc2c1nnn2Cc1ccccc1	5
NC(=O)CC(NC(=O)Cc1ccc(Br)cc1)c1ccc(NCCN2CCOCC2)c([N+](=O)[O-])c1 (stereo unspecified)	-1.2
CC(=O)Nc1ccc(S(=O)(=O)Nc2ccc3ccccc3n2)cc1	10.8
CC(C)CC(N)c1cn([C@@H](CCC(=O)O)C(=O)N2CCNCC2)nn1 (stereo partly specified)	-7.7
COc1ccccc1C(CC(=O)Nc1ccc(Cl)cc1)c1ccc(OC(C)C)cc1 (stereo unspecified)	2.5
Cc1cc(=O)[nH]c2ccc(S(=O)(=O)Nc3ccccc3)cc12	4.4

----------
# MEASUREMENT PROTOCOL: inhibition of NOD2-driven NF-kB reporter – cell-based, luminescence, uHTS, HEK293 (AID 1566)
# MEASUREMENT SETUP: HEK293 NOD2/NF-kB luciferase reporter, at 4 µM
Hit rate of the full screen: of about 290,000 compounds, about 1,800 (0.62%) were called active. No stated cut-off is given here; in the data, active means inhibition above about 50%; inactive means the rest. What follows is part of a selection rich in actives, with near analogues and random picks from the rest.
Outcome codes: active, inactive

COMPOUND	CLASS ASSIGNMENT
COc1ccc(-c2nn(-c3ccccc3)cc2/C=N/N2C(=O)CSC2=S)cc1	active
C=CCc1ccccc1OCC(=O)NNC(=S)NCc1ccccc1	active
Cc1ccc(NC(=O)c2cc(C)n(-c3ccccc3)c2C)cc1	active
CC(=O)Nc1ccc(NC(=O)C2CCC(CNS(=O)(=O)c3cccc4nsnc34)CC2)cc1 (configuration not stated)	inactive
COc1ccc(-c2nn(-c3ccccc3)cc2/C=N/O)cc1	inactive
Cc1cc(OCC(=O)NCCCn2ccnc2)c2c(C)c(C)c(=O)oc2c1	inactive
C=CCc1ccccc1OCC(=O)O	inactive
CCOC(=O)c1c(C)n(C)c2ccc(OCC(O)CN3CCN(C)CC3)cc12 (configuration not stated)	inactive
COc1ccc(/C=N/N2C(=O)CSC2=S)cc1	inactive
Cc1ccc(NC(=O)c2cc(C)n(-c3cccc(C)c3)c2C)cc1	inactive
O=C(CSCCO)Nc1ccc(C2CCCCC2)cc1	inactive
O=C(CNC(=O)C1CCCCC1)NCc1ccco1	inactive

----------
# MEASUREMENT PROTOCOL: inhibition of NOD2-driven NF-kB reporter – cell-based, luminescence, uHTS, HEK293 (AID 1566)
# MEASUREMENT SETUP: HEK293 NOD2/NF-kB luciferase reporter, at 4 µM, active compounds read high
Among all 290,000 compounds or so, about 1,800 (0.62%) were called active. This excerpt belongs to a sample that is enriched for actives.
Some compounds, each annotated with its measured inhibition.
OUTCOME MEASURE: inhibition (%)

COMPOUND	QUANTITATIVE READOUT
Cc1ccc(CNC(=O)c2ccc(NC(=O)C3=CSCCO3)cc2)cc1	8.2
Cc1ccc(S(=O)(=O)NNC(=O)c2ccccc2O)cc1	8.4
COc1ccc(N2C(N)=NC(N)=NC2(C)C)cc1	-2.7
Cc1cc2cc(CNC(=S)Nc3ccc(OC(F)F)cc3)ccc2[nH]1	4.6
CCCCn1c(-c2nn(C)c(C)c2Cl)n[nH]c1=S	19.7
c1ccc(-c2csc3nnc(SCc4ccc5c(c4)OCCO5)n23)cc1	33.7
COc1ccc(/C=C(\NC(=O)c2ccc(OC)cc2)C(=O)N2CCCCC2)cc1	-9.7
CCCOc1ccc(C(O)(CCC)CCN2CCCCC2)cc1 (configuration not stated)	3.4
O=S(=O)(c1ccccc1)N1CCN(c2cc(-c3ccccc3)nc3ncnn23)CC1	43.4
O=c1sc2ccccc2c(N2CCOCC2)c1[N+](=O)[O-]	8.4
CCc1ccc(N(C(=O)Cn2nnc(-c3ccccc3)n2)C(C(=O)NC2CCCCC2)c2ccccn2)cc1 (configuration not stated)	5.5
FC(F)(F)c1cc(-c2ccccc2)nc2ncnn12	-1.1
Cc1cnnn1-c1cccc([N+](=O)[O-])c1	-9.2
O=C1c2cc(F)ccc2-n2c1nc1ccccc1c2=O	63.4
Cc1ccc(C2/C(=C(/O)c3cnn(-c4ccccc4)c3C)C(=O)C(=O)N2CCN2CCOCC2)o1 (configuration not stated)	-58.4
CCCc1cc(=O)n2nc(N3CCC(C(=O)N4CCN(c5cccc(OC)c5)CC4)CC3)sc2n1	40.5
CS(=O)(=O)N(CC(=O)NCCSCc1ccccc1Cl)c1ccc(F)cc1	3
Cc1c(/C(O)=C2/C(=O)C(=O)N(CCN3CCOCC3)C2c2ccccn2)cnn1-c1ccccc1 (configuration not stated)	56.8
C=CCNC(=S)NNC(=O)COc1ccc2cc(Br)ccc2c1	-39.9
CCCc1cc(=O)n2nc(N3CCC(C(=O)N4CCN(c5ccc(OC)cc5)CC4)CC3)sc2n1	62.2
CCOC(=O)N1CCC(N2CCN(Cc3ccc(C)o3)C(CCO)C2)CC1 (configuration not stated)	2.4
CC1(C)N=C(N)N=C(N)N1c1ccc(Oc2ccc(Cl)cc2)c(Cl)c1	58.7

----------
# MEASUREMENT PROTOCOL: inhibition of NOD2-driven NF-kB reporter – cell-based, luminescence, uHTS, HEK293 (AID 1566)
# MEASUREMENT SETUP: HEK293 NOD2/NF-kB luciferase reporter, at 4 µM, active compounds read high
About 1,800 (0.62%) of roughly 290,000 compounds were called active. The sample holds actives, similar compounds and a random draw of the others, so the mix is not that of the screen.
OUTCOME MEASURE: inhibition (%)

COMPOUND	OUTCOME MEASURE	UNIT LABEL	QUANTITATIVE READOUT
Cc1cc(N2CCN(c3nc(-c4ccc([N+](=O)[O-])cc4)cs3)CC2)c2ccccc2n1	inhibition	%	15.6
CCOc1ccc(-n2c(N)c(-c3nc4ccccc4[nH]3)sc2=S)cc1	inhibition	%	9.9
COc1ccc(NC(=O)CCn2c(=O)c3cccn3c3ccccc32)c(OC)c1	inhibition	%	38.3
Cc1cc(Cl)c(S(=O)(=O)N2CCCC2)cc1OCC(=O)NC1CCCCC1	inhibition	%	32.3
c1ccc(CCSc2nccn2-c2ccccc2)cc1	inhibition	%	-141
CCOc1ccc(-c2[nH]ncc2-c2ccc(Cl)cc2)c(O)c1	inhibition	%	17.2
O=C(CCC(=O)N1CCc2ccccc21)Nc1ccccc1	inhibition	%	12.5
COc1ccccc1NC(=O)CSC1=NC(=O)C(Cc2ccccc2)C(=O)N1 (stereo not given)	inhibition	%	-3
COc1ccc(-c2csc(N3CCN(c4cc(C)nc5ccccc45)CC3)n2)cc1OC	inhibition	%	70
CCN1CCN(S(=O)(=O)c2cc(OCC(=O)NC3CCCCC3)c(C)cc2Cl)CC1	inhibition	%	35.8

----------
# MEASUREMENT PROTOCOL: inhibition of NOD2-driven NF-kB reporter – cell-based, luminescence, uHTS, HEK293 (AID 1566)
# MEASUREMENT SETUP: HEK293 NOD2/NF-kB luciferase reporter, at 4 µM, active compounds read high
Out of some 290,000 compounds screened, about 1,800 (0.62%) were called active. The list comes from a sample in which actives are over-represented; it also holds close analogues and randomly drawn compounds.
Measured inhibition, listed per entry for reference.
OUTCOME MEASURE: inhibition (%)

COMPOUND	QUANTITATIVE READOUT
NS(=O)(=O)c1ccc(CCNc2ncnc3sccc23)cc1	34.1
Cc1ccc2nc(NC(=O)c3ccccn3)sc2c1	76.3
COc1ccc(NC(=O)CO/N=C(\C)c2cccs2)cc1	-10.2
Cc1sc2ncnc(N[C@@H](CCC(=O)O)C(=O)O)c2c1C	2.8
COc1ccccc1/C=C/C(=O)c1ccccc1	-52.6
Cc1nc(NCCc2ccc(S(N)(=O)=O)cc2)c2c(C)c(C)sc2n1	45.1
COc1ccccc1C(CNc1ncnc2sc(C)c(C)c12)N(C)C (stereo not given)	18.9
Cc1cccc(/C=N\NC(=O)c2ccccc2-n2cccc2)c1	-1.5
COc1ccc(-n2ncc3c(N4CCC(C(N)=O)CC4)ncnc32)cc1	-46.4
COc1ccccc1OCC(=O)N1CCCC(Nc2ccc(C)c(C)c2)C1 (stereo not given)	16.3
Cc1ccc2nc(NC(=O)c3ccccc3F)sc2c1	-152
COc1ccc(-n2ncc3c(N4CCCCC4)ncnc32)cc1	67.7
CCOC(=O)C1CCN(c2ncnc3c2cnn3-c2ccc(Cl)cc2)CC1	57.5
C=CCn1c(CSCc2ccccc2)nnc1SCC(=O)N1CCN(c2ccccc2)CC1	0.4
COc1ccc(C(CNc2ncnc3sc(C)c(C)c23)N(C)C)cc1 (stereo not given)	69.8
O=C(NC1CCCCCC1)C(=S)NC1CCCCC1	-56.5
COc1ccc(-n2ncc3c(N4CCC(C)CC4)ncnc32)cc1	-97.6
COc1ccc(-c2noc(CN3CCOCC3)n2)cc1OC	-8.7
CC1CCCN(c2ncnc3c2cnn3-c2ccc(Cl)cc2)C1 (stereo not given)	86.2
Clc1ccc(-n2ncc3c(N4CCCCCC4)ncnc32)cc1	70.6
CCOC(=O)C1CCN(c2ncnc3c2cnn3-c2ccccc2)CC1	1.8
O=C(c1cc(-c2cccc(Cl)c2)on1)N1CCCCCC1	-44.3
Oc1ccc(N=Nc2ccc3c(c2)OCCO3)c2ncccc12	-8.2
O=C(NCCSCc1ccc(Cl)cc1)c1cccs1	6.3
Cc1sc2ncnc(NCC(c3ccccc3)N(C)C)c2c1C (stereo not given)	10.2
